Sourced from the supplement of paper PMC13380429

Test system: Vero E6 infected with SARS-CoV-2
Test protocol: inhibition of SARS-CoV-2 cytopathic effect; higher = more antiviral protection, active = above 15
Recorded conditions: 833.33 nM; 48 h
Please respond with reported inhibition of SARS-CoV-2 cytopathic effect for every item in the list.
Numbers only, in %.

Observe how each entry below is paired with its result.
Molecule	Assay result
N=C(N)S/C=C\C(=O)O	-1.03
CN(C)CCOc1ccc(/C(=C(/CCCl)c2ccccc2)c2ccccc2)cc1 [toremifene]	2.22

Could you tell me inhibition of SARS-CoV-2 cytopathic effect for each of these molecules? They are listed below.
1. O=C(Cn1c(=O)sc2ccc(Cl)cc21)N1CCN(CCO)CC1 [tiaramide]
2. O=c1oc2cc(O)ccc2s1 [tioxolone]
3. C[C@@H]1CN(CCCn2c3ccccc3c3ccccc32)C[C@H](C)N1 [rimcazole]
4. Cc1c(NC(=O)N2CCOCC2)ccc2c1c1ccccc1n2C(C)C
5. CCCCNC(=O)[C@@H]1Cc2ccccc2N1C(=O)[C@@H](N)CC [butabindide]
6. O=C(Nc1cnc(Cl)nc1)c1ccc(F)c(F)c1
7. O=C(Nc1cc(Oc2cc(F)c(NC(=O)C3(C(=O)Nc4ccc(F)cc4)CC3)cc2F)ccn1)C1CC1 [altiratinib]

1. -1.93
2. -1.44
3. -2.52
4. 2.48
5. 1.68
6. -0.85
7. -1.62

Please look at the items below and tell me inhibition of SARS-CoV-2 cytopathic effect for each one, in order.
1. O=C(OCC(O)CO)c1ccccc1Nc1ccnc2cc(Cl)ccc12 (stereo not drawn) [glafenine]
2. CCn1c(=O)n(C2=C(CO)CN(CC3CCCCCCC3)CC2)c2ccccc21 [trap-101]
3. COc1ccc(C(=O)N2CCCC2=O)cc1 [aniracetam]
4. O=C(Nc1cc(-c2ccccc2)nn1-c1ccccc1F)c1ccc([N+](=O)[O-])cc1
5. Cc1cccc(/C=N/Nc2cc(N3CCOCC3)n3nc(-c4ccncc4)cc3n2)c1

[-3.09, 1.48, 0.1, -3.16, 19]
